Test system: MCF7
ASSAY EXPLANATION: Cytotoxicity against human MCF7 cells after 48 hrs by SRB assay
Type: functional
MEASUREMENT PARAMETERS: Homo sapiens, MCF7, 48 h

{"SMILES STRUCTURE": "COc1cc([N+](=O)[O-])c(/C=C/c2cc(OC)c(OC)c(OC)c2)cc1[N+](=O)[O-]", "COMPARATOR": "=", "GI50, nM": 2500}
{"SMILES STRUCTURE": "COc1cc([N+](=O)[O-])c(/C=C\\c2cc(OC)c(OC)c(OC)c2)cc1N", "COMPARATOR": "=", "GI50, nM": 2600}
{"SMILES STRUCTURE": "COc1cc([N+](=O)[O-])c(/C=C\\c2cc(OC)c(OC)c(OC)c2)cc1[N+](=O)[O-]", "COMPARATOR": "=", "GI50, nM": 2300}
{"SMILES STRUCTURE": "COc1cc(/C=C/c2ccc(OC)c([N+](=O)[O-])c2[N+](=O)[O-])cc(OC)c1OC", "COMPARATOR": ">", "GI50, nM": 10000}
{"SMILES STRUCTURE": "COc1cc(N)c(/C=C\\c2cc(OC)c(OC)c(OC)c2)cc1N", "COMPARATOR": "=", "GI50, nM": 610}
{"SMILES STRUCTURE": "COc1cc(/C=C/c2cc([N+](=O)[O-])c(OC)c([N+](=O)[O-])c2)cc(OC)c1OC", "COMPARATOR": ">", "GI50, nM": 10000}
{"SMILES STRUCTURE": "COc1cc(/C=C\\c2ccc(OC)c([N+](=O)[O-])c2[N+](=O)[O-])cc(OC)c1OC", "COMPARATOR": "=", "GI50, nM": 2300}
{"SMILES STRUCTURE": "COc1ccc(/C=C\\c2cc(OC)c(OC)c(OC)c2)c(N)c1N", "COMPARATOR": "=", "GI50, nM": 11}
{"SMILES STRUCTURE": "COc1cc(/C=C\\c2cc([N+](=O)[O-])c(OC)c([N+](=O)[O-])c2)cc(OC)c1OC", "COMPARATOR": "=", "GI50, nM": 410}
{"SMILES STRUCTURE": "COc1cc(N)c(/C=C\\c2cc(OC)c(OC)c(OC)c2)cc1[N+](=O)[O-].Cl", "COMPARATOR": "=", "GI50, nM": 1500}
{"SMILES STRUCTURE": "COc1cc(/C=C\\c2cc(N)c(OC)c(N)c2)cc(OC)c1OC", "COMPARATOR": "=", "GI50, nM": 1500}

* * *

System: BXPC-3
ASSAY EXPLANATION: Cytotoxicity against human BXPC3 cells after 48 hrs by SRB assay
Type: functional
MEASUREMENT PARAMETERS: Homo sapiens, BXPC-3, 48 h

{"SMILES STRUCTURE": "COc1cc(/C=C/c2ccc(OC)c([N+](=O)[O-])c2[N+](=O)[O-])cc(OC)c1OC", "COMPARATOR": ">", "GI50 (nM)": 10000}
{"SMILES STRUCTURE": "COc1cc(/C=C\\c2cc(N)c(OC)c(N)c2)cc(OC)c1OC", "COMPARATOR": "=", "GI50 (nM)": 1500}
{"SMILES STRUCTURE": "COc1cc([N+](=O)[O-])c(/C=C\\c2cc(OC)c(OC)c(OC)c2)cc1N", "COMPARATOR": "=", "GI50 (nM)": 2700}

* * *

Parameter: GI50. Scope: all listed entries.
System: KM-20L2
ASSAY EXPLANATION: Cytotoxicity against human KM20L2 cells after 48 hrs by SRB assay
Assay type: functional
MEASUREMENT PARAMETERS: Homo sapiens, KM-20L2, 48 h

{"SMILES STRUCTURE": "COc1ccc(/C=C\\c2cc(OC)c(OC)c(OC)c2)c(O)c1O", "VALUE UNITS": "nM", "GI50": 61}
{"SMILES STRUCTURE": "COc1ccc(/C=C\\c2cc(OC)c(OC)c(OC)c2)cc1O", "VALUE UNITS": "nM", "GI50": 340}
{"SMILES STRUCTURE": "COc1cc(/C=C\\c2cc([N+](=O)[O-])c(OC)c([N+](=O)[O-])c2)cc(OC)c1OC", "VALUE UNITS": "nM", "GI50": 520}

* * *

ASSAY EXPLANATION: Inhibition of calf tubulin polymerization
Set-up: species or system Bos taurus
pIC50: −log10 of the molar value.
MEASURED PROPERTY: pIC50

{"SMILES STRUCTURE": "COc1cc(/C=C\\c2cc([N+](=O)[O-])c(OC)c([N+](=O)[O-])c2)cc(OC)c1OC", "MEASURED PROPERTY": "pIC50", "ASSAY RESULT": 5.13}

* * *

Test system: KM-20L2
ASSAY EXPLANATION: Cytotoxicity against human KM20L2 cells after 48 hrs by SRB assay
Assay type: functional
MEASUREMENT PARAMETERS: Homo sapiens, KM-20L2, 48 h
Parameter: GI50. Scope: all listed entries.
MEASURED PROPERTY: GI50

{"SMILES STRUCTURE": "COc1cc([N+](=O)[O-])c(/C=C/c2cc(OC)c(OC)c(OC)c2)cc1[N+](=O)[O-]", "ASSAY RESULT": "> 10 µM"}
{"SMILES STRUCTURE": "COc1cc(/C=C/c2cc([N+](=O)[O-])c(OC)c([N+](=O)[O-])c2)cc(OC)c1OC", "ASSAY RESULT": "> 10 µM"}
{"SMILES STRUCTURE": "COc1cc(/C=C/c2ccc(OC)c([N+](=O)[O-])c2[N+](=O)[O-])cc(OC)c1OC", "ASSAY RESULT": "> 10 µM"}
